Test system: HCC-2998 colon
assay procedure: NCI-60 one-dose screen, 48 h
condition details: 10 µM unless noted
About 83,000 compounds went through this panel and 20% of them were active in at least one assay; those are over-represented in the sample as a whole. Active and inactive are the calls of the source. Rule for the calls: active = growth percent below 10; inactive = the rest.
Use one of these outcomes when replying: class 1 for active, class 0 for inactive

Give the logged outcome of this assay for the following molecule: Cc1sc2nc(NCCc3cccs3)[nH]c(=O)c2c1C
class 0

Give the logged outcome of this assay for the following molecule: Cc1ccc(-c2c3c(N)nc(-c4ccncc4)nc3nc3c2c(C)nn3-c2ccccc2)cc1
class 0

Give the logged outcome of this assay for the following molecule: C1CCC(C(CC2CCCCN2)C2CCCCC2)CC1 (stereo not given)
class 1

Give the logged outcome of this assay for the following molecule: COc1ccc(OC)c(CCn2cncc2-c2c[nH]c3cc(Br)ccc23)c1
class 0

Give the logged outcome of this assay for the following molecule: CC(C)OP(=O)(OC(C)C)c1ncc(-c2ccc(C(F)(F)F)cc2)c(NC2CCCCCC2)n1
class 1

Give the logged outcome of this assay for the following molecule: COc1cc(/C=C/C(=O)c2c(C)n([O-])c3ccccc3[n+]2=O)cc(OC)c1OC
class 0

Give the logged outcome of this assay for the following molecule: C[C@H](C(=O)N[C@@H](Cc1ccc(-c2ccccc2)cc1)C(=O)NC1CC(C)(C)NC(C)(C)C1)c1ccc(-c2ccccc2)c(F)c1
class 1

Give the logged outcome of this assay for the following molecule: COc1ccc(N2CCN(CC(=O)N3CCN(c4nnc(-c5ccccc5)c(-c5ccccc5)n4)CC3)CC2)cc1
class 0

Give the logged outcome of this assay for the following molecule: COc1cc(/C=C2\CN(S(=O)(=O)c3ccc(C)cc3)C/C(=C\c3cc(CN4CCOCC4)c(O)c(OC)c3)C2=O)cc(CN2CCOCC2)c1O
class 1

Give the logged outcome of this assay for the following molecule: COP(=O)(OC)C(c1ccccc1)(c1ccccc1)c1ccccc1
class 0

Give the logged outcome of this assay for the following molecule: NS(=O)(=O)c1ccc(-n2ncc3c(N/N=C/c4ccccc4)ncnc32)cc1
class 0

Give the logged outcome of this assay for the following molecule: COc1cc(-c2nc3nc4sc(C)c(C)c4c(=O)n3[nH]2)cc(OC)c1OC
class 0

Give the logged outcome of this assay for the following molecule: CCOC(CNCc1cc(C)c2[nH]c3ccccc3c2c1C)OCC
class 0

Give the logged outcome of this assay for the following molecule: Cc1cccc2nnc(-c3ccccc3)n12
class 0

Give the logged outcome of this assay for the following molecule: COc1ccc2[nH]c(=O)c(CNc3ccc(Nc4nccc(-c5ccc(Cl)cc5)n4)cc3)cc2c1
class 0

Give the logged outcome of this assay for the following molecule: O=C(Nc1nc2ccc(OC(F)(F)F)cc2s1)c1ccc(F)cc1
class 1

Give the logged outcome of this assay for the following molecule: CC(=O)O[C@H]1CC[C@@]2(C)C(=CC[C@@H]3[C@@H]2CC[C@]2(C)C(c4cccnc4)=CC[C@@H]32)C1
class 0

Give the logged outcome of this assay for the following molecule: CC1(C)CC2(C)CC(=O)C1C(C(=O)O)C2C(=O)O (stereo not given)
class 0

Give the logged outcome of this assay for the following molecule: CC1c2ccccc2-c2ccccc2N1C (stereo not given)
class 0

Give the logged outcome of this assay for the following molecule: CC[n+]1c(/C=C/c2ccc(N3CCCC3)cc2)cccc1/C=C/c1ccc(N2CCCC2)cc1
class 1

Give the logged outcome of this assay for the following molecule: Cc1cc(C)cc(S(=O)(=O)n2ccc(-c3ccc4c(c3)CCC(C)(C)O4)n2)c1
class 0

Give the logged outcome of this assay for the following molecule: CCN(CC)CCCCCCCNc1c2ccc(Cl)cc2nc2ccc(OC)cc12
class 1

Give the logged outcome of this assay for the following molecule: Nc1nc(Nc2ccccc2SSc2ccccc2Nc2nc(N)nc(-c3cccc(Cl)c3)n2)nc(-c2cccc(Cl)c2)n1
class 0

Give the logged outcome of this assay for the following molecule: N#CSCC1CC(O)(c2ccccc2)C(c2ccccc2)C(c2ccc(Cl)cc2)O1 (stereo not given)
class 1

Give the logged outcome of this assay for the following molecule: Cc1ccc(-c2c3c(N)c4c(nc3nc3c2c(C)nn3-c2ccccc2)CCC4)cc1
class 0

Give the logged outcome of this assay for the following molecule: Cc1cc(=O)[nH]c(/C(=N/Nc2ccccc2)C(=O)c2ccc(Cl)cc2)n1
class 0

Give the logged outcome of this assay for the following molecule: Cc1ccc(NC(=O)c2sc3nc4c(cc3c2N)C(=O)CCC4)cc1
class 0

Give the logged outcome of this assay for the following molecule: COc1cnc2c(c1)C(=O)c1c-2n(CCCNC2=NCCS2)c(=O)c2cc(F)ccc12
class 0

Give the logged outcome of this assay for the following molecule: CN(C)c1ccc(-c2nc3ncc(Br)cc3o2)cc1
class 0

Give the logged outcome of this assay for the following molecule: COc1cc(/C=C/C(=O)C(C(=O)/C=C/c2ccc(OC(=O)CCNc3nnc(C)s3)c(OC)c2)C(=O)CCNc2nnc(C)s2)ccc1OC(=O)CCNc1nnc(C)s1
class 1

Give the logged outcome of this assay for the following molecule: Cc1cc(-c2ccccc2)cc(C)n1
class 0

Give the logged outcome of this assay for the following molecule: N/C(=N\C(N)=N\c1nc2ccccc2s1)c1ccnc(Cl)c1
class 0

Give the logged outcome of this assay for the following molecule: Cc1n(Cc2ccc3ccccc3c2)c2ccccc2[n+]1Cc1ccc2ccccc2c1
class 1

Give the logged outcome of this assay for the following molecule: COCCOCCOCCOCCOc1ccc2c(c1)C(=O)c1nc3ncccc3c(=O)n1-2
class 1

Give the logged outcome of this assay for the following molecule: O=C1C(=O)c2c(nc3ccc(Cl)cn23)-c2ccccc21
class 1
